The entries below are paired with their reported inhibition at 10 µM.
Subject Of Test: 5-lipoxygenase (Cavia porcellus)
Construct: The 5-LO was concentrated in a known manner from PMNs of male Dunkin-Hartley guinea-pigs; endogenous in cells; host or cells: peritoneal PMNs of male Dunkin-Hartley guinea-pigs, homogenized; 10,000 x g supernatant used as enzyme solution
Sequence (A0A286X958 1-674): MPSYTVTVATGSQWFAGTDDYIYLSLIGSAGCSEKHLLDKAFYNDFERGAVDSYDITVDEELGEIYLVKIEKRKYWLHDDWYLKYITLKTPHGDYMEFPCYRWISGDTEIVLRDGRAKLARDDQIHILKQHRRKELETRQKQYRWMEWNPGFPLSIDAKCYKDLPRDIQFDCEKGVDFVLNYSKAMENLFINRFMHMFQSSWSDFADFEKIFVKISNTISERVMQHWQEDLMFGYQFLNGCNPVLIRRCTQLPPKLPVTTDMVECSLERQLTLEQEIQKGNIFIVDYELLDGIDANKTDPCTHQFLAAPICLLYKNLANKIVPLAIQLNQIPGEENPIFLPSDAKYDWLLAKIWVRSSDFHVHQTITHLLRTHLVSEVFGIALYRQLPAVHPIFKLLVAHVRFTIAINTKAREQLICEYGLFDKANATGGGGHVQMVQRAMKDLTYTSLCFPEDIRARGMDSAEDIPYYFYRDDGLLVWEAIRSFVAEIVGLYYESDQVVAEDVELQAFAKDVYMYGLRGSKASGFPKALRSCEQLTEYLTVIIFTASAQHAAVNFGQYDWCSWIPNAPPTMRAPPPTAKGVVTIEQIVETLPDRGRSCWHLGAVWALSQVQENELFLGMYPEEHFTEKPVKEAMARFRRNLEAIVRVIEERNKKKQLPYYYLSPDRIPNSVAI
Protocol Description: inhibitory activity on free 5-lipoxygenase concentrated from peritoneal PMNs of the guinea-pig (5-HETE formation)
Format: biochemical
Assay Setup: 10^-5 mole/liter; guinea-pig 5-LO, 37° C.; read-out: In vitro % inhibitory activity on 5-HETE formation caused by free 5-LO
Note: unit % is implicit; provide only the numeric part.

Examples with answers:
| Compound | inhibition at 10 µM (%) |
| --- | --- |
| Cc1ccnc(N2CCN(CCCC3Cn4c(-c5cc(C)c(O)c(C)c5)c(C)c5c(O)ccc(c54)O3)CC2)c1 (stereo not drawn) [Example 73] | 100 |
| Cc1ccnc(N2CCN(CCCC3Cn4c(-c5cc(C)c(O)c(C)c5)c(C)c5c(F)ccc(c54)O3)CC2)c1 (stereo not drawn) [Example 29] | 67 |
| Cc1cc(-c2c(C)c3cccc4c3n2CC(CCN2CCN(c3ccccn3)CC2)O4)cc(C)c1O (stereo not drawn) [Example 59] | 70 |
| Cc1cc(-c2c(C)c3c(O)ccc4c3n2CC(CCC(=O)N2CCN(c3ccccn3)CC2)O4)cc(C)c1O (stereo not drawn) [Example 71] | 100 |
| Cc1ccnc(N2CCN(CCC3Cn4c(-c5cc(C)c(O)c(C)c5)c(C)c5cc(F)cc(c54)O3)CC2)c1 (stereo not drawn) [Example 42] | 55 |
| Cc1cc(-c2c(C)c3cccc4c3n2CC(CCCCN2CCN(c3ccccn3)CC2)O4)cc(C)c1O (stereo not drawn) [Example 65] | 99 |

What the record says about Cc1ccnc(N2CCN(CCC3Cn4c(-c5cc(C)c(O)c(C)c5)c(C)c5cc(O)cc(c54)O3)CC2)c1 (stereo not drawn) [Example 44] : inhibition at 10 µM is 98

Field inhibition at 10 µM (entry COc1cc(-c2c(C)c3cccc4c3n2CC(CCCCN2CCN(c3cc(C)ccn3)CC2)S4)cc(C)c1O (stereo not drawn) [Example 64] ) reads 74

Cc1c(-c2ccc(O)cc2)n2c3c(cccc13)OC(CCC(=O)N1CCN(c3ccccn3)CC1)C2 (stereo not drawn) [Example 36] has a reported inhibition at 10 µM of 65

Record Cc1cc(-c2c(C)c3c(OCc4ccccc4)ccc4c3n2CC(CCC(=O)N2CCN(c3ccccn3)CC2)O4)cc(C)c1O (stereo not drawn) [Example 75] , field inhibition at 10 µM: 100

Please fill in: inhibition at 10 µM reported for Cc1ccc(N2CCN(C(=O)CCC3Cn4c(-c5ccc(O)cc5)c(C)c5cccc(c54)O3)CC2)nc1 (stereo not drawn) [Example 34] = 97

# compound COc1ccc2c3c1c(C)c(-c1ccc(O)cc1)n3CC(CCN1CCN(c3cc(C)ccn3)CC1)O2 (stereo not drawn) [Example 3] ; its inhibition at 10 µM = 53

For this compound ( Cc1ccnc(N2CCN(CCCC3Cn4c(-c5ccc(O)cc5)c(C)c5cccc(c54)O3)CC2)c1 (stereo not drawn) [Example 16] ), measured inhibition at 10 µM is 57

The reported value for Cc1cc(-c2c(C)c3cccc4c3n2CC(CCN2CCC(N(C)c3nccc(=O)[nH]3)CC2)O4)cc(C)c1O (stereo not drawn) [Example 40] in terms of inhibition at 10 µM is 56

// inhibition at 10 µM value for Cc1cc(-c2c(C)c3c(F)ccc4c3n2CC(CCN2CCN(c3ccccn3)CC2)O4)cc(C)c1O (stereo not drawn) [Example 27] : 50

For record Cc1ccnc(N2CCN(CCCCC3Cn4c(-c5cc(C)c(O)c(C)c5)c(C)c5cccc(c54)O3)CC2)c1 (stereo not drawn) [Example 18] the listed inhibition at 10 µM is 100

inhibition at 10 µM reported for this compound COc1cc(-c2c(C)c3cccc4c3n2CC(CCC(=O)N2CCN(c3ccc(C)cn3)CC2)O4)ccc1O (stereo not drawn) [Example 39] : 100
